These data points were gathered from patent US11466023B2.

Test system: THP-1 AML cell line
Protocol Summary: Single agent cell viability (CellTiterGlo)
Type: cell-based
Condition: Homo sapiens, THP-1, 72 h
Reported Endpoint: IC50

Molecule	Test Value
Nc1ncn([C@H]2C[C@H](O)[C@@H](CO)O2)c(=O)n1 [Decitabine, decitabine]	> 30 µM

* * *

System: mononuclear cells from AML patient samples
Protocol Summary: Cell viability assay (Sytox blue flow cytometry) in primary AML samples
Type: cell-based, human
Condition: Patient AML 6200840, 48 hours; combination at 1:1 ratio; read-out: 50% lethal concentration (LC50)
Reported Endpoint: CC50

Mol	Measurement Target	Test Value
Cc1c(-c2c(-c3ccc(F)o3)sc3ncnc(O[C@H](Cc4ccccc4OCc4ccnn4CC(F)(F)F)C(=O)O)c23)ccc(OCCN2CCN(C)CC2)c1Cl	mononuclear cells from AML patient samples	227 nM

* * *

Test system: ML-2 AML cell line
Protocol Summary: Single agent cell viability (CellTiterGlo)
Assay type: cell-based
Condition: 72 h
Reported Endpoint: IC50 (µM)

Compound	Reported Endpoint	Test Value
Nc1ncn([C@H]2C[C@H](O)[C@@H](CO)O2)c(=O)n1 [Decitabine, decitabine]	IC50	14

* * *

Tested on: mononuclear cells from AML patient samples
Protocol Summary: Cell viability assay (Sytox blue flow cytometry) in primary AML samples
Assay type: cell-based, human
Condition: Patient AML AH6217528, 48 hours; combination at 1:1 ratio; read-out: 50% lethal concentration (LC50)
Reported Endpoint: CC50 (nM)

Mol	Test Value
Cc1c(-c2c(-c3ccc(F)o3)sc3ncnc(O[C@H](Cc4ccccc4OCc4ccnn4CC(F)(F)F)C(=O)O)c23)ccc(OCCN2CCN(C)CC2)c1Cl	1160

* * *

Tested on: mononuclear cells from AML patient samples
Protocol Summary: Cell viability assay (Sytox blue flow cytometry) in primary AML samples
Assay type: cell-based, human
Condition: Patient AML AH0131936, 48 hours; combination at 1:1 ratio; read-out: 50% lethal concentration (LC50)
Reported Endpoint: CC50 (µM)

Compound	Measurement Target	Test Value
Cc1c(-c2c(-c3ccc(F)o3)sc3ncnc(O[C@H](Cc4ccccc4OCc4ccnn4CC(F)(F)F)C(=O)O)c23)ccc(OCCN2CCN(C)CC2)c1Cl [Compound 2]	mononuclear cells from AML patient samples	10.7

* * *

Test system: mononuclear cells from AML patient samples
Protocol Summary: Cell viability assay (Sytox blue flow cytometry) in primary AML samples
Assay type: cell-based, human
Condition: Patient AML AH6181414_2, 48 hours; combination at 1:1 ratio; read-out: 50% lethal concentration (LC50)

Mol	CC50, µM
Cc1c(-c2c(-c3ccc(F)o3)sc3ncnc(O[C@H](Cc4ccccc4OCc4ccnn4CC(F)(F)F)C(=O)O)c23)ccc(OCCN2CCN(C)CC2)c1Cl	15.5

* * *

System: THP-1 AML cell line
Protocol Summary: Single agent cell viability (CellTiterGlo)
Type: cell-based
Condition: THP-1, single agent, 3 days incubation, CellTiterGlo; read-out: IC50
Method: Cell lines were cultured at 37° C. in a humidified atmosphere containing 5% CO2 and expanded in T-150 flasks. […] In order to analyse the activity of the compounds as single agents, cells were seeded and treated with nine 2-fold serial dilutions of each compound dispensed individually directly into the cell assay plates. […] Luminescence was quantified on a multipurpose plate reader. Single agent IC50s were calculated using standard four-parametric curve fitting.
Reported Endpoint: IC50 (nM)

Mol	Units Symbol	Test Value
Cc1c(-c2c(-c3ccc(F)o3)sc3ncnc(O[C@H](Cc4ccccc4OCc4ccnn4CC(F)(F)F)C(=O)O)c23)ccc(OCCN2CCN(C)CC2)c1Cl	nM	51
COc1ccccc1-c1nccc(COc2ccccc2C[C@@H](Oc2ncnc3sc(-c4ccc(F)cc4)c(-c4ccc(OCCN5CCN(C)CC5)c(Cl)c4C)c23)C(=O)O)n1	nM	17

* * *

System: mononuclear cells from AML patient samples
Protocol Summary: Cell viability assay (Sytox blue flow cytometry) in primary AML samples
Type: cell-based, human
Condition: Patient AML AH6208160, 48 hours; combination at 1:1 ratio; read-out: 50% lethal concentration (LC50)
Reported Endpoint: CC50 (µM)

Mol	Reported Endpoint	Test Value
Cc1c(-c2c(-c3ccc(F)o3)sc3ncnc(O[C@H](Cc4ccccc4OCc4ccnn4CC(F)(F)F)C(=O)O)c23)ccc(OCCN2CCN(C)CC2)c1Cl	CC50	21.6

* * *

System: MOLM-13 AML cell line
Protocol Summary: Single agent cell viability (CellTiterGlo)
Assay type: cell-based
Condition: Homo sapiens, MOLM-13, 72 h
pIC50: −log10 of the molar value.

Mol	pIC50
Nc1ncn([C@H]2C[C@H](O)[C@@H](CO)O2)c(=O)n1	6.40

* * *

System: mononuclear cells from AML patient samples
Protocol Summary: Cell viability assay (Sytox blue flow cytometry) in primary AML samples
Type: cell-based, human
Condition: Patient AML AH6120264, 48 hours; combination at 1:1 ratio; read-out: 50% lethal concentration (LC50)
Method: Bone marrow samples from patients with AML were collected after informed consent in accordance with guidelines approved by The Alfred Hospital Human research ethics committee. Mononuclear cells were isolated by density-gradient centrifugation Ficoll-Hypaque (GE Healthcare, Australia) density-gradient centrifugation and red cell lysis was performed using 0.156 M NH4Cl, 0.017 M Tris-HCl pH 7.2 as previously described (Rijal et al., Blood 2015, 125, 2815-2824). […]

Mol	CC50 (nM)
Cc1c(-c2c(-c3ccc(F)o3)sc3ncnc(O[C@H](Cc4ccccc4OCc4ccnn4CC(F)(F)F)C(=O)O)c23)ccc(OCCN2CCN(C)CC2)c1Cl	679

* * *

pIC50 values for the compounds below.
System: ML-2 AML cell line
Protocol Summary: Single agent cell viability (CellTiterGlo)
Format: cell-based
Condition: 72 h; ML-2, single agent, 3 days incubation, CellTiterGlo; read-out: IC50
pIC50: −log10 of the molar value.
Reported Endpoint: pIC50

Mol	Test Value
CC(=O)[C@]1(O)Cc2c(O)c3c(c(O)c2[C@@H](O[C@H]2C[C@H](N)[C@H](O)[C@H](C)O2)C1)C(=O)c1ccccc1C3=O	8.00
Nc1ccn([C@@H]2O[C@H](CO)[C@@H](O)[C@@H]2O)c(=O)n1	7.52

* * *

Tested on: mononuclear cells from AML patient samples
Protocol Summary: Cell viability assay (Sytox blue flow cytometry) in primary AML samples
Assay type: cell-based, human
Condition: Patient AML AH6220847, 48 hours; combination at 1:1 ratio; read-out: 50% lethal concentration (LC50)

Compound	Measurement Target	CC50, nM
Cc1c(-c2c(-c3ccc(F)o3)sc3ncnc(O[C@H](Cc4ccccc4OCc4ccnn4CC(F)(F)F)C(=O)O)c23)ccc(OCCN2CCN(C)CC2)c1Cl [Compound 2]	mononuclear cells from AML patient samples	210

* * *

System: mononuclear cells from AML patient samples
Protocol Summary: Cell viability assay (Sytox blue flow cytometry) in primary AML samples
Type: cell-based, human
Condition: Patient AML AH6627892, 48 hours; combination at 1:1 ratio; read-out: 50% lethal concentration (LC50)
Reported Endpoint: CC50 (µM)

Compound	Units Symbol	Test Value
Cc1c(-c2c(-c3ccc(F)o3)sc3ncnc(O[C@H](Cc4ccccc4OCc4ccnn4CC(F)(F)F)C(=O)O)c23)ccc(OCCN2CCN(C)CC2)c1Cl [Compound 2]	µM	14.2

* * *

Test system: mononuclear cells from AML patient samples
Protocol Summary: Cell viability assay (Sytox blue flow cytometry) in primary AML samples
Type: cell-based, human
Condition: Patient AML AH6214498, 48 hours; combination at 1:1 ratio; read-out: 50% lethal concentration (LC50)
Reported Endpoint: CC50 (nM)

Mol	Reported Endpoint	Units Symbol	Test Value
Cc1c(-c2c(-c3ccc(F)o3)sc3ncnc(O[C@H](Cc4ccccc4OCc4ccnn4CC(F)(F)F)C(=O)O)c23)ccc(OCCN2CCN(C)CC2)c1Cl	CC50	nM	0.868

* * *

System: mononuclear cells from AML patient samples
Protocol Summary: Cell viability assay (Sytox blue flow cytometry) in primary AML samples
Format: cell-based, human
Condition: Patient AML AH1228742, 48 hours; combination at 1:1 ratio; read-out: 50% lethal concentration (LC50)
Method: Bone marrow samples from patients with AML were collected after informed consent in accordance with guidelines approved by The Alfred Hospital Human research ethics committee. Mononuclear cells were isolated by density-gradient centrifugation Ficoll-Hypaque (GE Healthcare, Australia) density-gradient centrifugation and red cell lysis was performed using 0.156 M NH4Cl, 0.017 M Tris-HCl pH 7.2 as previously described (Rijal et al., Blood 2015, 125, 2815-2824). […]

Molecule	CC50
Cc1c(-c2c(-c3ccc(F)o3)sc3ncnc(O[C@H](Cc4ccccc4OCc4ccnn4CC(F)(F)F)C(=O)O)c23)ccc(OCCN2CCN(C)CC2)c1Cl [Compound 2]	5.36 mM

* * *

Tested on: mononuclear cells from AML patient samples
Protocol Summary: Cell viability assay (Sytox blue flow cytometry) in primary AML samples
Assay type: cell-based, human
Condition: Patient AML AH6615742, 48 hours; combination at 1:1 ratio; read-out: 50% lethal concentration (LC50)

Mol	Measurement Target	CC50, µM
Cc1c(-c2c(-c3ccc(F)o3)sc3ncnc(O[C@H](Cc4ccccc4OCc4ccnn4CC(F)(F)F)C(=O)O)c23)ccc(OCCN2CCN(C)CC2)c1Cl	mononuclear cells from AML patient samples	14.5
